Below, each entry is listed with its recorded solubility kinetic.
# Applied Conditions: buffer; pH 7.4; 200.0 µM

Look over these answered cases.
What does the record list as solubility kinetic for CCc1cc(=O)oc2cc(OCC(=O)N3CC[C@@]4(O)CCCC[C@H]4C3)ccc12 ?
> 57.8 µg/mL

I have this compound here, COc1cc(C(=O)OCC(=O)NC2CCCCC2)cc(OC)c1OC , and I need its recorded solubility kinetic.
> 52.7 µg/mL

***
For COc1ccc(C(=O)c2oc3ccc(OC)cc3c2NC(C)=O)cc1 , what is its reported solubility kinetic?
< 0.7 µg/mL

Would you mind telling me what solubility kinetic value was observed for Cc1cc(C(=O)O)ccc1N=Cc1c(O)ccc2ccccc12 ?
> 45.8 µg/mL

Could you share which solubility kinetic value was measured for Cn1c(=O)oc2cc(S(=O)(=O)Nc3ccc(O)cc3)ccc21 ?
> 48 µg/mL

Fill in: solubility kinetic of O=C(c1ccccc1NS(=O)(=O)c1ccccc1)N1CCCCCC1 is ___
> 53.8 µg/mL

// query solubility kinetic value for entry O=C(OCC(=O)N1CCCC1=O)c1ccc(O)cc1O
> 41.9 µg/mL

Fill in: solubility kinetic of Cn1c(COc2ccc([N+](=O)[O-])cc2)nnc1SCC(N)=O is ___
> 48.5 µg/mL

Looking for the measured solubility kinetic of COc1ccc(NC(=O)C(=S)N2CCCC2)cc1 , can you help?
> 39.7 µg/mL

I have this compound here, COc1ccccc1CNC(=O)C1CCC(=O)N1C(C)C (stereo not drawn) , and I need its recorded solubility kinetic.
> 43.6 µg/mL

Could you tell me which solubility kinetic is on file for CCNC(=O)CN1C(=O)NC2(CCOc3ccccc32)C1=O (stereo not drawn) ?
> 45.5 µg/mL

Fill blank: measured solubility kinetic of the compound CC1(C)CC2(CCO1)C(Nc1ccccc1)=NC(=S)N2c1ccccc1 (stereo not drawn) is ____.
< 0.3 µg/mL

Form field: reported solubility kinetic of CC1(C(=O)O)CCC(C(=O)Nc2ccc(F)cc2)C1(C)C (stereo not drawn)
> 44 µg/mL

Reported solubility kinetic, compound CCOC(=O)CCCc1ccc(/C(C)=N/NC(N)=S)cc1 : ____
> 46.1 µg/mL

Entry O=C(O)/C=C/C(=O)Nc1nc(-c2ccc3ccccc3c2)cs1 : reported solubility kinetic = ?
> 48.7 µg/mL

What measured solubility kinetic goes with CN(C(=O)COC(=O)CCC(=O)c1ccc(F)cc1)C1CCCCC1 ?
> 52.4 µg/mL

Form field: reported solubility kinetic of O=C(CN1C(=O)C2CC=CCC2C1=O)N1CCN(S(=O)(=O)c2ccccc2)CC1 (stereo not drawn)
> 62.6 µg/mL

Fill in: solubility kinetic of O=C(NCc1ccco1)C(=O)c1cn(CC(=O)N2CCCC2)c2ccccc12 is ___
> 56.9 µg/mL

Quick check: solubility kinetic of Cc1ccc2[nH]c(C(=O)O)c(NC(=O)[C@@H]3C[C@@H]3c3ccccc3)c2c1 ?
> 50.2 µg/mL

Returns the measured solubility kinetic for the input compound. Input: COc1ccc(OC)c(NC(=O)COC(=O)C2CCC2)c1
> 44 µg/mL

----------
# Applied Conditions: buffer; pH 7.4; 200.0 µM
Quantity Kind: solubility kinetic

Guide cases for solubility kinetic, answers given:
Give the measured solubility kinetic of Cc1ccc(NC(=O)CSCC(=O)O)cc1 .
> 35.9 µg/mL

What does the data say about its solubility kinetic? Entry: Cc1cc(C)cc(NC(=S)NC2CC3CCCC(C2)N3C2CC2)c1 (centres undefined)
> 51.5 µg/mL

More entries:
Quick check: solubility kinetic of Cc1csc(=O)n1CC(=O)OCC(=O)NCc1ccccc1 ?
> 48.1 µg/mL

Give the measured solubility kinetic of CN1CCCN(C(=O)COc2ccc(F)cc2F)CC1 .
> 42.6 µg/mL

----------
# Applied Conditions: buffer; pH 7.4; 200.0 µM
Quantity Kind: solubility kinetic

So what's the measured solubility kinetic for this one? O=C(CN1CCCCCC1)NCC1CCCO1.O=C(O)C(=O)O (stereo not given)
> 49.6 µg/mL

What value of measured solubility kinetic is listed for Clc1cccc(Nc2nc(-c3ccncc3)nc3ccccc23)c1 ?
< 0.2 µg/mL

Report solubility kinetic for COc1cccc2cc(C(=O)NCCN3CCOCC3)oc12 please.
> 45.7 µg/mL

Which solubility kinetic is listed for CC1CCCC(C)N1C(=O)COC(=O)COc1ccc(C#N)cc1 (stereo not given) ?
> 49.6 µg/mL

Requested field: solubility kinetic. Item: CNCCc1ccccn1.Cl
> 31.4 µg/mL

What solubility kinetic value was documented for this molecule, Cc1cc(C)cc(Nc2ccc(C(=O)O)cc2[N+](=O)[O-])c1 ?
> 42.9 µg/mL

I would be grateful if you could share the reported solubility kinetic for Cc1ccc(S(=O)(=O)N2CCN(Cc3cccnc3)CC2)cc1 .
> 49.7 µg/mL

Would you mind telling me what solubility kinetic value was observed for Cl.O=C(CSC1=NCCN1)Nc1cccc([N+](=O)[O-])c1 ?
> 47.5 µg/mL

New cases:
What value of solubility kinetic has been recorded for this entry: CCOC(=O)C1(C)NC(c2ccco2)C2C(=O)N(C)C(=O)C21 (stereo not given)
> 45.9 µg/mL

Which solubility kinetic value is on record for Cc1ccc(NS(=O)(=O)c2ccc3c(c2)oc(=O)n3C)cc1C ?
< 0.4 µg/mL

For the molecule shown here, CN1CCN(C(=O)/C=C/c2ccc(C#N)cc2)CC1 , give the reported solubility kinetic.
> 38.3 µg/mL

// query solubility kinetic value for entry CCCCN1C(C(=O)Nc2cc(C)on2)=C(O)c2ccccc2S1(=O)=O
> 56.6 µg/mL

// query solubility kinetic value for entry Cc1ccc(NC(=O)C2CC(=O)N(C(C)c3ccccc3)C2)cc1 (stereo not given)
> 48.4 µg/mL

What solubility kinetic value was documented for this molecule, C/C(=N\OCc1ccc(C#N)cc1)c1ccccc1 ?
< 0.3 µg/mL

Which solubility kinetic is listed for Cc1ccc(NC(=O)CSc2nccn2C)cc1F ?
> 41.9 µg/mL

----------
# Applied Conditions: buffer; pH 7.4; 200.0 µM
Quantity Kind: solubility kinetic

Check out these entries, answers already filled in.
Recorded solubility kinetic for O=C(O)/C=C/C(=O)NC1CCCCCCCCCCC1 , please?
> 42.2 µg/mL

// returns reported solubility kinetic for input COc1ccc(OC)c(NC(=S)N2CCCC2)c1
> 40 µg/mL

// returns reported solubility kinetic for input Br.CC1=C(c2ccccc2)SC2=NCCN21
> 44.6 µg/mL

If you can, please state the reported solubility kinetic value of Cc1ccc(C)c(S(=O)(=O)Nc2cc(C)on2)c1 .
> 39.9 µg/mL

Quick one: solubility kinetic for Cl.O=S(=O)(CCC1CCCCN1)c1ccccc1 (stereo unspecified) ?
> 43.5 µg/mL

Field request: solubility kinetic | item: O=C(CSCCOc1ccccc1)NCc1ccncc1
> 45.4 µg/mL

Continuing:
Consider the compound shown here: Cc1cc(=O)n2c(n1)NC(=NCc1ccccc1)NC2c1ccccc1 (stereo unspecified) What is its recorded solubility kinetic?
> 51.8 µg/mL

----------
Below is a list of entries, each paired with its recorded solubility kinetic value.
# Applied Conditions: buffer; pH 7.4; 200.0 µM

Example entries and their recorded answers appear below.
Can you look up the measured solubility kinetic of O=[N+]([O-])c1cccnc1SCc1c(F)cccc1Cl for me?
< 0.3 µg/mL

Return reported solubility kinetic; argument: Cc1ccsc1C(=O)NCC(=O)OCc1ccccc1
> 43.4 µg/mL

solubility kinetic lookup needed for O=C(Nc1ccc(Cl)cc1Cl)c1ccc(Br)o1 , thanks.
< 0.7 µg/mL

# query: solubility kinetic of entry Cc1csc(=O)n1CCC(=O)N(C)Cc1c(F)cccc1Cl
> 51.4 µg/mL

// moving on: another record for solubility kinetic
Consider the molecule Nc1oc2ccccc2c(=O)c1-c1ccc2c(c1)OCO2 and give its measured solubility kinetic.
> 42.2 µg/mL

----------
# Applied Conditions: buffer; pH 7.4; 200.0 µM
Param threshold (0.02 mg/mL) applies to solubility kinetic; output class 1 when value >= threshold, class 0 when value < threshold.

Kindly determine if solubility kinetic recorded for Cc1ccc(C(CC(=O)O)NC(=O)CCNC(=O)c2ccco2)cc1 (stereo unspecified) is above or exactly 0.02 mg/mL.
class 1

In plain terms: is recorded solubility kinetic at least 0.02 mg/mL for O=C(NCCC(=O)N1CCN(c2ccccn2)CC1)c1ccc([N+](=O)[O-])cc1 ?
class 1

Could you verify whether the entry O=[N+]([O-])c1cccc(S(=O)(=O)N2CCc3ccccc3C2)c1 shows solubility kinetic of no less than 0.02 mg/mL?
class 0

Would you kindly look at the next entry?
Can Cc1cc(SCc2ccc([N+](=O)[O-])cc2)nc(=O)[nH]1 be said to have solubility kinetic at or above 0.02 mg/mL?
class 1

----------
# Applied Conditions: buffer; pH 7.4; 200.0 µM
The reader will find reported solubility kinetic values listed item by item below.

Quick one: solubility kinetic for NC(=O)c1ccc(NC(=O)C2CCCC2)cc1 ?
> 34.8 µg/mL

---
Give the measured solubility kinetic of O=C(O)CNC(=S)N(Cc1ccccc1Cl)C1CCCC1 .
> 49 µg/mL

Give its solubility kinetic value. Item: COC(=O)C/C=N/N=C1/NC(=O)/C(=C/C(=O)O)S1
> 40.7 µg/mL

Record request: solubility kinetic value, item Clc1ccccc1Sc1ccc(-c2ccccn2)s1
< 0.7 µg/mL

Please give the measured solubility kinetic for this molecule: CC(C)(C)c1ccc(C(=O)NCC(=O)N2CCCC2)cc1
> 43.3 µg/mL

Which value of solubility kinetic has been reported for COc1ccc(S(=O)(=O)N2CCCC2c2cccs2)cc1 (stereo not given) in the records?
27.4 µg/mL

Which value of solubility kinetic has been reported for CC(CCc1ccc(O)cc1)NCCC(c1ccccc1)c1ccccc1 (stereo not given) in the records?
53.4 µg/mL
